// compounds with IC50 on Matrilysin (Homo sapiens, UniProt P09237), multi-source literature
Note to self: use True only for IC50 readings below 0.6 µM; a reading exactly at 0.6 µM still gets False.

{"compound": "COc1ccc(CNC(=O)c2ccc3sc(=O)n(Cc4ccccc4)c(=O)c3c2)cc1", "label class": "False"}

Request: Quick check: IC50 of O=C(CC(CCn1nnc2ccccc2c1=O)C(=O)O)c1noc2cc(OCC3CCCCC3)ccc12 (racemic) under 0.6 µM?
Result: False

Request: Consider "COc1cc(C(=O)NCc2ccc3c(c2)OCO3)sc1C(=O)NCc1ccc2c(c1)OCO2" . Does its IC50 lie strictly below 0.6 µM?
Result: False

Request: Does Cc1ccc2nnn(C[C@@H]3CC[C@H](C(=O)c4ccc(OCCC5CCOCC5)cc4)[C@H]3C(=O)O)c(=O)c2c1 (racemic) have IC50 strictly under 0.6 µM?
Result: False

Request: Take the compound "CC(C)[C@H](NS(=O)(=O)c1ccc2c(c1)Sc1ccccc1S2)C(=O)O" and say whether its IC50 is less than 0.6 µM.
Result: False

Request: Does the reported IC50 of O=C(O)[C@@H]1[C@@H](Cn2nnc3ccc(C(F)(F)F)cc3c2=O)CC[C@H]1C(=O)c1ccc(OCCC2CCOCC2)cc1 (single isomer, unassigned) stay below 0.6 µM?
Result: True

Request: Answer whether the compound O=C(CC(CCn1nnc2ccccc2c1=O)C(=O)O)c1noc2cc(OCc3ccccc3)ccc12 (racemic) has IC50 strictly less than 0.6 µM
Result: False

Request: Does the reported IC50 of CCCCCSc1ccc(C(=O)[C@H]2CC[C@@H](Cn3nnc4ccc(C(F)(F)F)cc4c3=O)[C@@H]2C(=O)O)cc1 (racemic) stay below 0.6 µM?
Result: True

Request: IC50 under 0.6 µM? Item: O=C(O)[C@@H]1[C@@H](Cn2nnc3ccccc3c2=O)CC[C@H]1C(=O)c1ccc(OCC2CCOCC2)cc1 (stereo in doubt)
Result: False
